System: CD2F1 mice, L1210 leukemia ip, survival T/C
assayDetails: NCI In Vivo Anticancer Drug Screen. Data for tumor model L1210 Leukemia (intraperitoneal) in CD2F1 (CDF1) mice
statedConditions: endpoint: mean survival time; dose: 200.0 mg/kg/injection; schedule: Q04DX003 (ip); vehicle: saline sonified; higher = longer survival
Toxic doses and inconclusive results are not listed.
observedProperty: T/C

1. Cc1ccc(S)cc1	95 % of control
2. COc1ccc(N=C/C=C/c2ccccc2)cc1	103 % of control
3. O=c1c(Br)cocc1Br	102 % of control
4. COC1=C(C#N)CC2(C)C(CCC3C2CCC2(C)C(C(C)CCCC(C)C)CCC32)C1 (stereo not given)	93 % of control
5. COC(OC)c1[nH]c(=S)[nH]c(=O)c1Cc1cc(C)ccc1C	95 % of control

###

This section presents compounds with their documented T/C values.
System: CD2F1 mice, L1210 leukemia ip, survival T/C
assayDetails: NCI In Vivo Anticancer Drug Screen. Data for tumor model L1210 Leukemia (intraperitoneal) in CD2F1 (CDF1) mice
statedConditions: endpoint: mean survival time; dose: 100.0 mg/kg/injection; schedule: Q04DX003 (ip); vehicle: Klucel (hydroxypropylcellulose) (HPC); higher = longer survival
Inconclusive results and toxic doses are left out.
observedProperty: T/C

1) CCOC(=O)c1nc2c(n(O)c1=N)CCC/C2=N\O	95 % of control
2) CC(=O)CC(OC(=O)c1cc([N+](=O)[O-])cc([N+](=O)[O-])c1)(C(F)(F)F)C(F)(F)F	91 % of control
3) O=C1CCC(c2ccccc2)=NN1c1ccccc1	98 % of control
4) CCOC(=O)c1ccc(NC(=O)c2ccc(OCCOc3ccc(C(C)(C)CC(C)(C)C)cc3)c(NC(=O)CC(=O)c3cccc([N+](=O)[O-])c3)c2)cc1	111 % of control
5) ClC(Cl)(Cl)c1nc(C(Cl)(Cl)Cl)nc(C(Cl)(Cl)Cl)n1	97 % of control
6) CCCCCCCCCCCCCCCCSc1cccc(C)c1	95 % of control
7) CCCCCCC(=O)/C=C/c1cccc(Cl)c1	104 % of control

###

This section presents compounds with their documented T/C values.
System: CD2F1 mice, L1210 leukemia ip, survival T/C
assayDetails: NCI In Vivo Anticancer Drug Screen. Data for tumor model L1210 Leukemia (intraperitoneal) in CD2F1 (CDF1) mice
statedConditions: endpoint: mean survival time; dose: 200.0 mg/kg/injection; schedule: Q04DX002 (ip); vehicle: saline with Tween-80; higher = longer survival
Toxic doses and inconclusive results are not listed.
observedProperty: T/C

1) CC(C)OC(=O)COc1ccc(F)cc1F	95 % of control
2) CCCCOC(=O)COc1ccc(F)cc1F	100 % of control
3) Cc1ccc(S(=O)(=O)NNC(=O)c2ccccc2C(=O)O)cc1	100 % of control
4) COc1ccc(NC(=O)Oc2c(Cl)cc(Cl)c3ccccc23)cc1	93 % of control
5) CC/C=N/NC(=O)c1ccc[n+](C)c1	92 % of control
6) CC1(C)Oc2[nH]c(=O)n(-c3ccc(Cl)cc3)c(=O)c2C1c1ccc(Cl)cc1 (centres undefined)	105 % of control
7) O=C1OC(O)(c2ccc(Cl)cc2)C(Cc2ccccc2)=C1c1ccccc1 (centres undefined)	90 % of control
8) CC12CCCCC1=CC(=O)CC2 (centres undefined)	112 % of control
9) O=S(=O)(CCCl)c1ccc(Cl)cc1	101 % of control
10) COC(=O)c1cc(-c2ccccc2)n(-c2ccccc2)c1-c1ccccc1	87 % of control
11) CCOC(=O)C(c1ccccc1)P(=O)(OCC)OCC (centres undefined)	100 % of control
12) CCCCCCCCCCCOc1ccc(Cl)cc1Cl	93 % of control
13) CC(C)(C)c1cc(N)cc(C(C)(C)C)c1O	98 % of control
14) CCN(CC)C(=O)SCCSC(=O)N(CC)CC	91 % of control
15) O=C(O)COc1ccc(F)cc1Br	93 % of control
16) CN(C)C(=S)Oc1ccc(S(=O)(=O)F)cc1F	93 % of control
17) Cc1nc(C)c(C#N)c(=O)[nH]1	97 % of control
18) O.O=S(=O)(O)O.[Co+3].[NH2-].[NH2-].[NH2-].[NH2-].[NH2-]	123 % of control
19) O=C(O)CCOc1cc(F)c(Cl)cc1Cl	86 % of control
20) O=C(OC1(c2c(F)c(F)c(F)c(F)c2F)C2C=CC1CC2)c1ccc([N+](=O)[O-])cc1 (centres undefined)	98 % of control
21) Cc1c(OCC(=O)O)cc(Cl)c(Cl)c1Cl	121 % of control
22) O=[n+]1ccn([O-])c2ccccc21	105 % of control
23) COc1c(C)c2c(c(O)c1CCNc1ccc(S(N)(=O)=O)cc1)C(=O)OC2	96 % of control
24) Cc1cn(CC(=O)c2cc3ccccc3[nH]2)c(=O)[nH]c1=O	93 % of control
